- System: PC26
- PROCEDURE SUMMARY: qHTS profiling for inhibitors of Plasmodium falciparum proliferation (AID 504749); further: nearly all actives have a fitted effect of over 60% in size
- MEASUREMENT PARAMETERS: P. falciparum in erythrocytes, SYBR Green DNA, 72 h; series mostly up to 28.7 µM
Results filed as inconclusive are left out. Calls of active or inactive are those of the source. The call rests on the fitted dose curve; in most records, active means well fitted inhibition curve with a large enough effect; inconclusive means small, poorly fitted or top-dose-only effect; inactive means flat fitted curve, though single readings scatter.
Outcomes: y (active), n (inactive)

COMPOUND	ASSIGNED CATEGORY
COC1CC2CCC(C)[C@](O)(O2)C(=O)C(=O)N2CCCCC2C(=O)OC(C(C)CC2CCC(O)C(OC)C2)CC(=O)C(C)/C=C(/C)C(O)C(OC)C(=O)C(C)CC(C)C=CC=C/C=C\1C (some centres not stated)	y
CC1(C(=O)O)CCC2(C)CCC3(C)C(=CC(=O)C4C5(C)CCC(O)C(C)(C)C5CCC43C)C2C1 (configuration not stated)	n
CC(C)(C)C(=O)OCC(=O)C1CCC2C3CCC4=CC(=O)CCC4(C)C3CCC12C (configuration not stated)	n
O=C1[C@@H]2C[C@@H]3C[C@H]1C[C@@](O)(C3)C2	n
CC(=O)OC1C([N+]2(C)CCCCC2)C[C@H]2C3CC[C@H]4C[C@H](OC(C)=O)C([N+]5(C)CCCCC5)CC4(C)C3CCC12C (some centres not stated)	y
CO/N=C(/C(=O)N[C@@H]1C(=O)N2C(C(=O)O)=C(CSc3cnns3)CS[C@H]12)c1csc(N)n1	n
C[C@@H]1CC2C3CCC4=CC(=O)C=C[C@]4(C)[C@@]3(F)[C@@H](O)C[C@]2(C)[C@@]1(O)C(=O)COC(=O)c1cccc(S(=O)(=O)O)c1 (some centres not stated)	n

====

- PROCEDURE SUMMARY: Stat Signaling Pathway (AID 446);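 further: ME-180 cervical cancer cells given 40 pM IL-6 alongside compound; SIE-controlled beta-lactamase reporter measured as 460/530 nm FRET emission ratio; on the % scale 0 is the no-effect control and ±100 the full control effect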
- MEASUREMENT PARAMETERS: ME-180 (cervical carcinoma) SIE beta-lactamase reporter, IL-6 stimulated, 5 h; at 17.2 µM (top of the series) unless noted
Results filed as inconclusive are left out.
activity, negative = inhibition overview
READOUT: activity, negative = inhibition (%)

> print(dat)
                                   compound                          readout  value
1  CCCC(CCC(=O)Nc1ccc(C(=O)OC)cc1)C(=O)O (stereo unspecified)  activity, negative = inhibition   11.7
2         CCCSc1nc(N2CCOCC2)c2c(c1C#N)CCCC2  activity, negative = inhibition  -3.09
3  Nc1nc2n(n1)C(c1ccc(F)cc1)CC(c1ccc(F)cc1)N2 (stereo unspecified)  activity, negative = inhibition   5.35
4  CC1(C(=O)CSc2nc3ccccc3s2)CCC(=O)O1 (stereo unspecified)  activity, negative = inhibition   4.74
5  Cc1ccc(S(=O)(=O)N(CC(O)CN(C)C)c2ccccc2)cc1 (stereo unspecified)  activity, negative = inhibition   7.64
6   O=S1CCCSC1c1cccnc1 (stereo unspecified)  activity, negative = inhibition    2.7

====

- System: CP268
- PROCEDURE SUMMARY: qHTS profiling for inhibitors of Plasmodium falciparum proliferation (AID 504749); further: nearly all actives have a fitted effect of over 60% in size; further: potency means the concentration at half of the fitted maximal effect
- MEASUREMENT PARAMETERS: P. falciparum in erythrocytes, SYBR Green DNA, 72 h; series mostly up to 28.7 µM
Results filed as inconclusive are left out. Active and inactive are the calls of the source. Calls follow the shape of the dose curve; as a rule, active = well fitted inhibition curve with a large enough effect; inconclusive = small, poorly fitted or top-dose-only effect; inactive = flat fitted curve, though single readings scatter.
READOUT: Potency

> print(dat)
                                   molecule             value
1                  Cc1cncc(C(=O)O)[n+]1[O-]          inactive
2  CCCCCCCCCCCCCCCC(=O)OCC(COP(=O)(O)OCC[N+](C)(C)C)OC(=O)CCCCCCCCCCCCCCC (stereo not given)          inactive
3  C=CCn1c(=O)n(C2OC(CO)C(O)C2O)c2nc(N)[nH]c(=O)c21 (stereo not given)          inactive
4  CCCC(=O)Nc1c(I)cc(I)c(C[C@H](CC)C(=O)O)c1I          inactive
5  CO[C@H]1OC2O[C@@]3(C)CC[C@H]4[C@H](C)CC[C@@H]([C@H]1C)[C@@]24OO3 (stereo not given in full)  21.3 nM (active)

====

- System: CP268
- PROCEDURE SUMMARY: qHTS profiling for inhibitors of Plasmodium falciparum proliferation (AID 504749); further: nearly all actives have a fitted effect of over 60% in size
- MEASUREMENT PARAMETERS: P. falciparum in erythrocytes, SYBR Green DNA, 72 h; series mostly up to 28.7 µM
Results filed as inconclusive are left out. Calls of active or inactive are those of the source. The call rests on the fitted dose curve; in most records, active means well fitted inhibition curve with a large enough effect; inconclusive means small, poorly fitted or top-dose-only effect; inactive means flat fitted curve, though single readings scatter.
Outcomes: Yes = active, No = inactive

MOLECULE	ASSIGNED CATEGORY
CCOc1ccccc1O[C@@H](c1ccccc1)[C@@H]1CNCCO1	No
Nc1nc(Cl)nc2c1ncn2[C@@H]1O[C@H](CO)[C@H](O)C1F (some centres not stated)	No
CC[C@]1([C@H]2O[C@@H]([C@@H]3O[C@](O)(CO)[C@@H](C)C[C@H]3C)C[C@H]2C)CC[C@@H]([C@]2(C)CC[C@@]3(C[C@@H](O)[C@@H](C)[C@@H]([C@H](C)[C@H](OC)[C@H](C)C(=O)O)O3)O2)O1	Yes
OC[C@@H](O)C(O[C@@H]1O[C@@H](CO)[C@H](O)[C@H](O)[C@H]1O)[C@H](O)[C@@H](O)CO (some centres not stated)	No
CC(C)C[C@@H](NC(=O)[C@@H](Cc1ccccc1)NC(=O)c1cnccn1)B(O)O	Yes
Nc1nc(/C(=C/CC(=O)O)C(=O)NC2C(=O)N3C(C(=O)O)=CCSC23)cs1 (configuration not stated)	No
C[C@]12CC[C@@H]3c4ccc(O)cc4CC[C@H]3[C@@H]1CCC2OC(=O)CCC1CCCC1 (some centres not stated)	No

====

- Test system: CP192
- PROCEDURE SUMMARY: qHTS profiling for inhibitors of Plasmodium falciparum proliferation (AID 504749); further: nearly all actives have a fitted effect of over 60% in size
- MEASUREMENT PARAMETERS: P. falciparum in erythrocytes, SYBR Green DNA, 72 h; series mostly up to 28.7 µM
Inconclusive results are not listed. Activity calls are given as the source filed them. Calls follow the shape of the dose curve; as a rule, active = well fitted inhibition curve with a large enough effect; inconclusive = small, poorly fitted or top-dose-only effect; inactive = flat fitted curve, though single readings scatter.
Outcomes: active, inactive

COMPOUND	SYSTEM	ASSIGNED CATEGORY
C=C1NC(=O)c2cc(CN(C)c3ccc(C(=O)N[C@@H](CCC(=O)O)C(=O)O)s3)ccc2N1	CP192	inactive
CC[C@H]1OC(=O)[C@H](C)C(=O)[C@H](C)[C@@H](OC2O[C@H](C)C[C@H](N(C)C)[C@@H]2O)[C@@](C)(OC)C[C@@H](C)C(=O)[C@@H](C)C2N(CCCCn3cnc(-c4cccnc4)c3)C(=O)O[C@@]21C (stereo partly specified)	CP192	inactive
CC1OC(OCC2OC(Oc3c(-c4ccc(OCCO)c(OCCO)c4)oc4cc(OCCO)cc(O)c4c3=O)C(O)C(O)C2O)[C@@H](O)C(O)C1O (stereo partly specified)	CP192	inactive
NC(=O)NC(CCC(=O)O)C(=O)O (stereo unspecified)	CP192	inactive
C=CC1CN2CCC1CC2[C@@H](O)c1ccnc2ccc(OC)cc12 (stereo partly specified)	CP192	active
CO/N=C(/C(=O)N[C@@H]1C(=O)N2C(C(=O)O)=C(CSc3nc(C)c(CC(=O)O)s3)CS[C@H]12)c1csc(N)n1	CP192	inactive
Cc1cc2nc3c(=O)[nH]c(=O)nc-3n(CC(O)C(O)C(O)COP(=O)(O)O)c2cc1C (stereo unspecified)	CP192	inactive
CCC(=O)OC1C(N(C)C)CC(C)O[C@H]1O[C@H]1[C@H](C)[C@@H](O[C@H]2CC(OC)[C@@H](O)C(C)O2)[C@H](C)C(=O)O[C@@H](CC)[C@](C)(O)[C@@H](O)[C@H](C)C(=O)[C@@H](C)C[C@]1(C)O (stereo partly specified)	CP192	inactive
CC(=O)OCC(=O)[C@@]1(O)CCC2C3C[C@H](C)C4=CC(=O)C=CC4(C)C3C(O)CC21C (stereo partly specified)	CP192	inactive
O=C1CC[C@H](C(=O)N[C@@H]2C[C@H]2c2ccccc2)N1	CP192	inactive
CC[C@]1([C@H]2O[C@@H]([C@@H]3O[C@](O)(CO)[C@@H](C)C[C@H]3C)C[C@H]2C)CC[C@@H]([C@]2(C)CC[C@@]3(C[C@@H](O)[C@@H](C)[C@@H]([C@H](C)[C@H](OC)[C@H](C)C(=O)O)O3)O2)O1	CP192	active
NC(=O)C1CC2(NC(=O)NC2=O)c2cc(F)ccc2O1 (stereo unspecified)	CP192	inactive
CC(C)(C)NC[C@H](O)CSc1nc(-c2ccc(C(N)=O)s2)cs1	CP192	inactive
O=C1[C@@H]2C[C@@H]3C[C@H]1C[C@@](O)(C3)C2	CP192	inactive
CC1CCC(C(C)C)C(O)C1 (stereo unspecified)	CP192	inactive
Cn1cc(C(=O)[C@@H]2CCc3[nH]cnc3C2)c2ccccc21	CP192	inactive
